# subject.of.test: 15-hydroxyprostaglandin dehydrogenase [NAD(+)] (Homo sapiens)
# measurement.description: qHTS Assay for Inhibitors of HPGD (15-Hydroxyprostaglandin Dehydrogenase); further: on the % scale 0 is the no-effect control and ±100 the full control effect
# condition.notes: purified HPGD, NADH fluorescence kinetic, PGE2 substrate; active compounds read low
Screen size: about 150,000 compounds; about 6,500 (4.3%) were called active. About 12% were inconclusive and are not listed. The sample holds actives, similar compounds and a random draw of the others, so the mix is not that of the screen.

[
  {
    "compound": "CCOc1ccccc1N1CCN(C(=S)Nc2ccc(S(N)(=O)=O)cc2)CC1",
    "activity change, negative = inhibition / %": -4.15
  },
  {
    "compound": "c1coc(-c2nc3nc4ccccc4n3nc2-c2ccco2)c1",
    "activity change, negative = inhibition / %": -14.3
  },
  {
    "compound": "CC(=O)[C@H](C(c1ccccc1)N1CCOCC1)N1CCOCC1 (stereo partly specified)",
    "activity change, negative = inhibition / %": -6.44
  },
  {
    "compound": "Cc1ccc(-n2c(C)cc(C(=O)CSc3nnc4ccccn34)c2C)cc1",
    "activity change, negative = inhibition / %": -16.1
  },
  {
    "compound": "O=[N+]([O-])c1ccc(N/N=C2/CCCCC2c2ccccn2)c([N+](=O)[O-])c1 (stereo unspecified)",
    "activity change, negative = inhibition / %": -4.22
  },
  {
    "compound": "COC(=O)/C(C#N)=C/c1occc1C",
    "activity change, negative = inhibition / %": -10.9
  },
  {
    "compound": "O=C(CSc1nnc(-c2cccnc2)n1CCc1ccccc1)NCc1ccccc1",
    "activity change, negative = inhibition / %": -12.6
  },
  {
    "compound": "CSc1nc(-c2ccco2)nn1C(=O)CCc1ccccc1",
    "activity change, negative = inhibition / %": -14
  },
  {
    "compound": "O=[N+]([O-])c1ccc(N2CCNCC2)cc1NCc1cccnc1",
    "activity change, negative = inhibition / %": -18.8
  },
  {
    "compound": "O=c1nc2s/c(=C\\c3ccco3)c(=O)n2nc1Cc1ccccc1",
    "activity change, negative = inhibition / %": -22.5
  },
  {
    "compound": "N#Cc1ccc(C(=O)Nc2nc(-c3cccs3)c(C(=O)C(F)(F)F)s2)cc1",
    "activity change, negative = inhibition / %": 3.33
  }
]

###

# subject.of.test: 15-hydroxyprostaglandin dehydrogenase [NAD(+)] (Homo sapiens)
# measurement.description: qHTS Assay for Inhibitors of HPGD (15-Hydroxyprostaglandin Dehydrogenase); further: on the % scale 0 is the no-effect control and ±100 the full control effect
# condition.notes: purified HPGD, NADH fluorescence kinetic, PGE2 substrate; active compounds read low
# Excerpt: Human 15-Hydroxyprostaglandin dehydrogenase (HPGD) catalyzes the inactivation of prostaglandin E2, and plays a major role in cancer biology by antagonizing the oncogenic potential of cyclooxygenase type 2 (COX2). Assays are available, based on absorbance/fluorescence increase of NADH with the substrate 15-OH prostaglandin E2. References 1. […] An increase in the fluorescence intensity due to conversion of NAD+ to NADH was used to measure the enzyme activity. […]
The campaign covered roughly 150,000 compounds. About 6,500 (4.3%) were called active. Another 12% or so got no clear call; they are omitted. For the sample, actives were picked, then their nearest neighbours and some compounds at random.

[
  {
    "entry.smiles": "COc1cc(/C=C/C(=O)O)cc(S(=O)(=O)Nc2ccccc2SC)c1OC",
    "activity change, negative = inhibition (%)": -7.12
  },
  {
    "entry.smiles": "COc1cc(Cl)c(C)cc1NC(=O)[C@@H]1CCCN1C(=O)c1cccs1",
    "activity change, negative = inhibition (%)": -4.97
  },
  {
    "entry.smiles": "COC(=O)c1cc(C(=O)N(Cc2ccccc2)c2ccccn2)cc([N+](=O)[O-])c1",
    "activity change, negative = inhibition (%)": -15.3
  },
  {
    "entry.smiles": "COc1nc(N(C)C)nc(N2CC(=O)N(CCNS(=O)(=O)c3ccc(C)cc3)C2=N)n1",
    "activity change, negative = inhibition (%)": -10.5
  },
  {
    "entry.smiles": "COc1ccc(C(=O)n2nc(-c3ccc(Cl)cc3)nc2N)cc1OC",
    "activity change, negative = inhibition (%)": -16.8
  }
]

###

# subject.of.test: 15-hydroxyprostaglandin dehydrogenase [NAD(+)] (Homo sapiens) (UniProt P15428)
# Sequence (P15428 whole entry, looked up): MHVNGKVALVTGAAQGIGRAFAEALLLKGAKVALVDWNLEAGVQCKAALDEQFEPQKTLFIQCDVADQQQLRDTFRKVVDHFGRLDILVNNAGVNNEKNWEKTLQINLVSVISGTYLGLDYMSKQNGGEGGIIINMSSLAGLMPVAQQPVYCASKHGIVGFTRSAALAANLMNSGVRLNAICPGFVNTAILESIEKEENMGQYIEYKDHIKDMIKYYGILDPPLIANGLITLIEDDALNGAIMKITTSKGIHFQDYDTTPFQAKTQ
# measurement.description: qHTS Assay for Inhibitors of HPGD (15-Hydroxyprostaglandin Dehydrogenase); further: on the % scale 0 is the no-effect control and ±100 the full control effect
# condition.notes: purified HPGD, NADH fluorescence kinetic, PGE2 substrate; active compounds read low
In all, about 150,000 compounds went through this assay and about 6,500 (4.3%) were called active. Roughly 12% stayed inconclusive and do not appear here. Shown is part of a subset that was picked to be rich in actives.

[
  {
    "compound": "COc1ccc(C(=O)Nc2ccc3nc(N4CCCCC4)cc(C)c3c2)cc1OC",
    "result.units": "%",
    "activity change, negative = inhibition": -27.2
  },
  {
    "compound": "O=[N+]([O-])c1cc(C(F)(F)F)ccc1NN=C1CCCC1",
    "result.units": "%",
    "activity change, negative = inhibition": -7.57
  },
  {
    "compound": "COc1ccc(OC(C)C(=O)NCCc2nc3ccccc3[nH]2)cc1 (centres undefined)",
    "result.units": "%",
    "activity change, negative = inhibition": -0.239
  },
  {
    "compound": "COc1ccccc1OCCC(=O)OCC(=O)NCc1ccccc1",
    "result.units": "%",
    "activity change, negative = inhibition": -9.44
  },
  {
    "compound": "O=C(Nc1nc2ccccc2s1)c1ccc2c(c1)OCO2",
    "result.units": "%",
    "activity change, negative = inhibition": -20.6
  },
  {
    "compound": "COc1ccc(N2CCN(c3ccc([N+](=O)[O-])cc3Cl)CC2)cc1",
    "result.units": "%",
    "activity change, negative = inhibition": -1.48
  },
  {
    "compound": "Nc1c(C(=O)NCc2ccccc2)sc2nc3c(cc12)C(=O)CCC3",
    "result.units": "%",
    "activity change, negative = inhibition": -24.2
  },
  {
    "compound": "COc1cc(C(=O)NNC(=O)c2ccc(S(=O)(=O)N3CCCCC3)cc2)cc(OC)c1OC",
    "result.units": "%",
    "activity change, negative = inhibition": 5.41
  },
  {
    "compound": "O=C(COc1ccccc1)N1CCc2ccccc2C1",
    "result.units": "%",
    "activity change, negative = inhibition": -7.89
  },
  {
    "compound": "COc1ccc(-c2nc3c(c4c2C[C@H](c2ccccc2)OC4)CN(C(=O)C2CC2)CC3)c(C)c1",
    "result.units": "%",
    "activity change, negative = inhibition": -7.07
  },
  {
    "compound": "Cc1ccc(N(Cc2cc3ccccc3[nH]c2=O)C(=O)c2cccs2)cc1",
    "result.units": "%",
    "activity change, negative = inhibition": -11
  },
  {
    "compound": "Cc1cc(SCC(=O)NCCN2C(=O)CSC2=O)nc2ccccc12",
    "result.units": "%",
    "activity change, negative = inhibition": -24.5
  },
  {
    "compound": "CN(c1ccccc1)S(=O)(=O)c1cccc(NC(=O)Cc2c(F)cccc2Cl)c1",
    "result.units": "%",
    "activity change, negative = inhibition": -8.06
  },
  {
    "compound": "CC(C)C1=CC2=CC[C@H]3[C@](C)(C(=O)O)CCC[C@]3(C)C2CC1 (some centres undefined)",
    "result.units": "%",
    "activity change, negative = inhibition": -6.95
  },
  {
    "compound": "O=C(Nc1ccccc1)c1cccnc1Nc1ccccc1",
    "result.units": "%",
    "activity change, negative = inhibition": -10.1
  },
  {
    "compound": "Cc1ccc(OCC(=O)OC(C)CN(C)Cc2ccccc2)cc1 (centres undefined)",
    "result.units": "%",
    "activity change, negative = inhibition": -13.4
  },
  {
    "compound": "Cc1ccc2[nH]cc(CCCN3C(=O)c4ccccc4C3=O)c2c1",
    "result.units": "%",
    "activity change, negative = inhibition": -4.52
  },
  {
    "compound": "COc1ccc2c(c1)CCc1c(C(=O)Nc3c(C)n(C)n(-c4ccccc4)c3=O)noc1-2",
    "result.units": "%",
    "activity change, negative = inhibition": -26.2
  },
  {
    "compound": "S=C(NCc1ccc(Cl)cc1)NC1CCCCC1",
    "result.units": "%",
    "activity change, negative = inhibition": -2.44
  },
  {
    "compound": "CCCNC(=O)c1ccccc1NC(=O)CSCc1ccc(OC)cc1",
    "result.units": "%",
    "activity change, negative = inhibition": -5.31
  },
  {
    "compound": "CCN(CC)S(=O)(=O)c1cccc(C(=O)Nc2ccccc2)c1",
    "result.units": "%",
    "activity change, negative = inhibition": 0.0347
  },
  {
    "compound": "O=c1onc(-c2cccs2)n1Cc1ccccc1",
    "result.units": "%",
    "activity change, negative = inhibition": -5.59
  },
  {
    "compound": "Cc1cccc(C(=O)NCC(=O)OCC(=O)N2CC3(C)CC2CC(C)(C)C3)c1 (centres undefined)",
    "result.units": "%",
    "activity change, negative = inhibition": -5.91
  },
  {
    "compound": "Cc1c(/C=N/N2C(=O)C3C4C=CC(C4)C3C2=O)c2ccccc2n1C (centres undefined)",
    "result.units": "%",
    "activity change, negative = inhibition": -1.58
  },
  {
    "compound": "CN(C)c1ccc(C(CNC(=O)c2ccc(F)cc2)c2c[nH]c3ccccc23)cc1 (centres undefined)",
    "result.units": "%",
    "activity change, negative = inhibition": -5.43
  },
  {
    "compound": "CC(C)OC(=O)c1cc(NC(=O)C2C3CCC(O3)C2C(=O)O)cc(C(=O)OC(C)C)c1 (centres undefined)",
    "result.units": "%",
    "activity change, negative = inhibition": -13.2
  },
  {
    "compound": "O=C(COc1ccc(/C=N/NC(=O)c2ccc(O)cc2)cc1)Nc1ccc([N+](=O)[O-])cc1",
    "result.units": "%",
    "activity change, negative = inhibition": -5.7
  },
  {
    "compound": "CC1(C)CCCC2=C1CC1C(=O)N(c3ccccc3)C(=O)C1C2 (centres undefined)",
    "result.units": "%",
    "activity change, negative = inhibition": 0.735
  },
  {
    "compound": "CCCc1nc(SCC(=O)Nc2ccccc2OC)c2c(=O)n(C)c(=O)n(C)c2n1",
    "result.units": "%",
    "activity change, negative = inhibition": -0.308
  },
  {
    "compound": "CCOc1ccc(/C=N/NC(=O)C(C)Sc2ccccn2)cc1OCC (centres undefined)",
    "result.units": "%",
    "activity change, negative = inhibition": -18.1
  },
  {
    "compound": "Cc1ccc(C(=O)OCC(=O)NCc2ccc3c(c2)OCO3)s1",
    "result.units": "%",
    "activity change, negative = inhibition": -10.3
  },
  {
    "compound": "Cc1cc2oc(C(=O)Nc3c(C)n(C)n(-c4ccccc4)c3=O)c(C)c2cc1Cl",
    "result.units": "%",
    "activity change, negative = inhibition": -3.54
  },
  {
    "compound": "CCCCNC(=O)C1CCC(CNS(=O)(=O)c2ccc(NC(C)=O)cc2)CC1 (centres undefined)",
    "result.units": "%",
    "activity change, negative = inhibition": -26.6
  },
  {
    "compound": "Cc1ccccc1OCC(=O)Nc1nc(C)c(C(=O)N(C)C)s1",
    "result.units": "%",
    "activity change, negative = inhibition": -1.51
  },
  {
    "compound": "O=C(CSc1nc2ccc([N+](=O)[O-])cc2[nH]1)c1ccc(Cl)cc1",
    "result.units": "%",
    "activity change, negative = inhibition": -4.65
  },
  {
    "compound": "O=C(COC(=O)c1ccc(Cl)nc1)NCc1ccc2c(c1)OCO2",
    "result.units": "%",
    "activity change, negative = inhibition": -9.81
  },
  {
    "compound": "COc1ccc2nc(Nc3nc(-c4cc5ccccc5oc4=O)cs3)sc2c1",
    "result.units": "%",
    "activity change, negative = inhibition": -10.8
  },
  {
    "compound": "Cc1ccc(N/N=C2\\COC(C)(C)CC2=O)cc1",
    "result.units": "%",
    "activity change, negative = inhibition": -19.3
  },
  {
    "compound": "O=C(c1cccs1)n1nc(NCc2ccccc2)nc1NCc1ccccc1",
    "result.units": "%",
    "activity change, negative = inhibition": -18.3
  },
  {
    "compound": "C#CCCCc1nc2ccccc2c(=O)n1N",
    "result.units": "%",
    "activity change, negative = inhibition": -10.2
  },
  {
    "compound": "Cc1nn(-c2ccccc2)c(-n2cccc2)c1C(=O)O",
    "result.units": "%",
    "activity change, negative = inhibition": -6.97
  },
  {
    "compound": "COc1ccc(N(C(=O)c2cccnc2)S(=O)(=O)c2ccc3c(c2)n(C)c(=O)n3C)cc1",
    "result.units": "%",
    "activity change, negative = inhibition": -4.39
  },
  {
    "compound": "COc1ccc(C(=O)CSc2nnc(NC(=O)C3CC(=O)N(c4cccc(OC)c4)C3)s2)cc1 (centres undefined)",
    "result.units": "%",
    "activity change, negative = inhibition": -4.45
  },
  {
    "compound": "CCOC(=O)c1ccc(N2C(=O)CC(Sc3nc(O)c(CC)c(=O)[nH]3)C2=O)cc1 (centres undefined)",
    "result.units": "%",
    "activity change, negative = inhibition": -10.7
  }
]
